test system: Mycosphaerella arachidis; experiment: Fungicidal activity against Mycosphaerella arachidis assessed as mycelium growth inhibition at 10 ug/mL by mycelium growth rate method; format: functional; details: read-out: GI
Measured Quantity: inhibition of growth at 10 µg/mL (%)
Numbers only, in %.

Smiles	inhibition of growth at 10 µg/mL, %
O=[N+]([O-])c1ccccc1-c1ccsc1[N+](=O)[O-]	8

Kindly give each listed record's inhibition of growth at 10 µg/mL.
1. O=[N+]([O-])c1cc(-c2cc(F)ccc2[N+](=O)[O-])cs1
2. O=[N+]([O-])c1cc(-c2ccccc2[N+](=O)[O-])cs1
3. O=[N+]([O-])c1cc(-c2cc(Cl)c(F)cc2[N+](=O)[O-])cs1
4. O=[N+]([O-])c1sccc1-c1c(Cl)cc(Cl)c(Cl)c1[N+](=O)[O-]
5. O=[N+]([O-])c1cc(-c2c(Cl)cc(Cl)c(Cl)c2[N+](=O)[O-])cs1

Solution:
1. 0
2. 8
3. 0
4. 5
5. 5
